test: Single ascending oral dose study in healthy volunteers: plasma pharmacokinetics; format: in vivo, human; settings: human, plasma, oral, 3 mg; read-out: AUC0-48, Median
attributeMeasured: AUC(0-t)

Qu. Name the reported AUC(0-t) value associated with the compound "Cn1cc(S(=O)(=O)[C@@](C)(F)C2CCN(C(=O)Nc3ccon3)CC2)c(C(F)F)n1"
Ans. 678 ng·h/mL

---

assay: Single ascending oral dose study in healthy volunteers: plasma pharmacokinetics; type: in vivo, human; settings: human, plasma, oral, 350 mg; read-out: Mean Residence Time, Mean
attributeMeasured: MRT
Answer format: number, then unit.

Qu. Name the reported MRT value associated with the compound "Cn1cc(S(=O)(=O)[C@@](C)(F)C2CCN(C(=O)Nc3ccon3)CC2)c(C(F)F)n1"
Ans. 22.8 h

---

assay: Single ascending oral dose study in healthy volunteers: plasma pharmacokinetics; assay type: in vivo, human; conditions: human, plasma, oral, 10 mg, 72 Hours Postdose; 10 mg; read-out: Plasma concentration, Median
attributeMeasured: concentration at 72 h (ng/mL)
Numbers only, in ng/mL.

Qu. Name the reported concentration at 72 h value associated with the compound Cn1cc(S(=O)(=O)[C@@](C)(F)C2CCN(C(=O)Nc3ccon3)CC2)c(C(F)F)n1 [Compound I]
Ans. 4.01

---

test: Food effect cross-over study, 200 mg (25 mg tablets), healthy volunteers: plasma pharmacokinetics; type: in vivo, human; settings: human, plasma, oral, 12 hours postdose, Fed, read-out: Plasma concentration, Mean
attributeMeasured: concentration at 12 h

Qu. Name the reported concentration at 12 h value associated with the molecule "Cn1cc(S(=O)(=O)[C@@](C)(F)C2CCN(C(=O)Nc3ccon3)CC2)c(C(F)F)n1"
Ans. 2840 ng/mL

---

assay: Single ascending oral dose study in healthy volunteers: plasma pharmacokinetics; format: in vivo, human; conditions: human, plasma, oral, 50 mg; read-out: Vz/F, Geometric Mean
attributeMeasured: Vd/F (L)
Answers are plain numbers, in L.

Qu. Name the reported Vd/F value associated with the molecule "Cn1cc(S(=O)(=O)[C@@](C)(F)C2CCN(C(=O)Nc3ccon3)CC2)c(C(F)F)n1"
Ans. 86.6

---

experiment: Single ascending oral dose study in healthy volunteers: plasma pharmacokinetics; format: in vivo, human; conditions: human, plasma, oral, 350 mg; read-out: Half-Life Lambda Z, Geometric Mean (converted)
attributeMeasured: half-life
Answer format: number, then unit.

Qu. Name the reported half-life value associated with the compound "Cn1cc(S(=O)(=O)[C@@](C)(F)C2CCN(C(=O)Nc3ccon3)CC2)c(C(F)F)n1"
Ans. 14.3 h

---

experiment: Food effect cross-over study, 200 mg (25 mg tablets), healthy volunteers: plasma pharmacokinetics; assay type: in vivo, human; conditions: human, plasma, po, single 200 mg oral dose, Fed (N = 10), read-out: AUClast, Median
attributeMeasured: AUC(0-t) (ng·h/mL)
Numbers only, in ng·h/mL.

Qu. Name the reported AUC(0-t) value associated with the compound "Cn1cc(S(=O)(=O)[C@@](C)(F)C2CCN(C(=O)Nc3ccon3)CC2)c(C(F)F)n1"
Ans. 89300

---

assay: HFrEF study Part 1 (SAD Cohorts 1 and 2): plasma pharmacokinetics; type: in vivo, human; conditions: human, plasma, oral, 450 mg, SAD Cohort 1, Split dose 450 mg (n = 1); read-out: AUC0-24
attributeMeasured: AUC(0-t)

Qu. Name the reported AUC(0-t) value associated with the compound "Cn1cc(S(=O)(=O)[C@@](C)(F)C2CCN(C(=O)Nc3ccon3)CC2)c(C(F)F)n1"
Ans. 79200 ng·h/mL
